- System: HCC-2998 colon
- ASSAY_PROCEDURE: NCI tumour cell line growth inhibition, 48 h
ASSAY_METRIC: GI50

# MOLECULE, GI50
data = [
    ("O=C1/C(=C/c2ccc(F)cc2)CCOc2ccc([N+](=O)[O-])cc21", "2.04 µM"),
    ("CCCCCCCCCCCCCC(=S)NCCCC[C@H](NC(=O)OCc1ccccc1)C(=O)Nc1ccccc1", "5.69 µM"),
    ("Cc1ccc2c(C(C[N+](=O)[O-])c3cccs3)c(-c3ccccc3)[nH]c2c1 (stereo not given)", "3.61 µM"),
    ("COc1cc(/C=C\\[N+](=O)[O-])ccc1O", "1.98 µM"),
]

Which GI50 is reported for this molecule? COC(=O)C1OC(O[C@H]2CCC3(C)C(CCC4(C)C3CC=C3C5CC(C)(C)CCC5(C(=O)O)CC[C@]34C)C2(C)C)C(O)C(OC2OC(CO)C(O)C(O)C2O)C1O (stereo not given in full)
7.14 µM
